The reported numbers originate from paper PMC6273229.

target: AChE from Electrophorus electricus (EeAChE) (Electrophorus electricus)
Sequence (O42275 24-633): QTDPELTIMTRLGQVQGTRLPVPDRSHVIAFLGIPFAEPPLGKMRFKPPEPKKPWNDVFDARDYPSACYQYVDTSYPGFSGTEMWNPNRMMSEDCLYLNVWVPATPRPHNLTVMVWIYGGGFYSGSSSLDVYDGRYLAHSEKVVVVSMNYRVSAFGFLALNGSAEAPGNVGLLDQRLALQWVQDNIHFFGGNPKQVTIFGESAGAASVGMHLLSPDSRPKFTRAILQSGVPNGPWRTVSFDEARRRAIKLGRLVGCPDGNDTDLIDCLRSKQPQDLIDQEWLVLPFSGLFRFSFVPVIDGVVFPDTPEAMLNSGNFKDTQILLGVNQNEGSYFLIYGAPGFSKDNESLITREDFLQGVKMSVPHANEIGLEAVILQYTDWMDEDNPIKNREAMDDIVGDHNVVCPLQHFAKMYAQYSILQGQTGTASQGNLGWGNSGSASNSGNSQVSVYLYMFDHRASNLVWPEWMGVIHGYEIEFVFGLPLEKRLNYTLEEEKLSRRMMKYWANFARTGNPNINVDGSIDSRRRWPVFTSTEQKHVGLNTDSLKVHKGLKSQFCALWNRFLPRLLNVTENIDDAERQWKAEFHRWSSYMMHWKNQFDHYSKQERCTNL
protocol.text: physchem
details: pH 8
measured.endpoint: solubility
Please make sure the unit comes right after the number.

Cn1ccnc1C1c2c(nc3c(c2N)CCCCC3)Oc2ccc3ccccc3c21 (centres unmarked) [Compound 9]
15 µM

# ---- query molecule ----
The molecule listed as Cn1ccnc1C1c2ccc3ccccc3c2Oc2nc3c(c(N)c21)CCCCC3 (centres unmarked) [Compound 11] has a reported solubility of 25 µM

----------
System: HepG2 cells
Type: cell-based
details: HepG2, 1000 µM, 24 h; mean ± S.E.M.
measured.endpoint: Cell viability (MTT reduction, % control)
// return numeric value only (unit: % control, not printed)

Below, 3 compounds whose answers are already recorded.
Cn1ccnc1C1c2c(nc3c(c2N)CCCC3)Oc2ccc3ccccc3c21 (stereo not shown)
66.2
CCOC(=O)C1=C(C)Oc2nc3c(c(N)c2C1c1nccn1C)CCCC3 (stereo not shown)
58.8
Nc1c2c(nc3ccccc13)CCCC2
20.0

The recorded Cell viability (MTT reduction, % control) with HepG2 cells for CC(=O)C1=C(C)Oc2nc3c(c(N)c2C1c1nccn1C)CCCC3 (stereo not shown) was 96.8
